Source of measurements: paper PMC3279955

# assayed-target: PKCβ2 (Homo sapiens)
# Sequence (P05771 1-673 isoform P05771-2): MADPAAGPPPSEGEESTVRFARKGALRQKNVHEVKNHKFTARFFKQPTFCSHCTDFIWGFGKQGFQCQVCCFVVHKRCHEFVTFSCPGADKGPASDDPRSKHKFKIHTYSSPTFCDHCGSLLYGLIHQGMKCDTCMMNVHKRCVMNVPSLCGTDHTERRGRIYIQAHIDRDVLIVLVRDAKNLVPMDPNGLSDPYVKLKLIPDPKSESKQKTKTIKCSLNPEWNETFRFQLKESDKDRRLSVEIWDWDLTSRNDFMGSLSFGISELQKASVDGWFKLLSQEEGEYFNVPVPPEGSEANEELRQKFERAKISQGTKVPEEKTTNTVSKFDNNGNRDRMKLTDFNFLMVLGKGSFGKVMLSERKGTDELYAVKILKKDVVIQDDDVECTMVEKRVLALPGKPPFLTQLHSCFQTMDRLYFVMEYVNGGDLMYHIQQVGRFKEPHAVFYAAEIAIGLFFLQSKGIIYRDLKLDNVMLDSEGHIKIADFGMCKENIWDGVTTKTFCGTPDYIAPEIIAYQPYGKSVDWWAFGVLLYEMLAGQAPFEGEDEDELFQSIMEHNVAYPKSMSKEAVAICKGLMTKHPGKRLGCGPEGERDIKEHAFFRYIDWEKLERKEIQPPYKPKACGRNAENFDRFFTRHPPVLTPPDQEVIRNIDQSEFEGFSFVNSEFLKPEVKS
outcome-measure: IC50 (nM)
Numbers only, in nM.

Consider the compound `Cn1cc(C2=C(c3coc4ccccc34)C(=O)NC2=O)c2cc(Br)ccc21` and give its recorded IC50.
219
